Where these numbers come from: the RNAGym collection of RNA variant scans (doi:10.1002/anie.201605470)

B1: Osa-1-4 twister ribozyme (parent)
chain: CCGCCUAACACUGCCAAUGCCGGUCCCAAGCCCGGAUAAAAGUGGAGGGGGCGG

- Variants of: B1
- methodSummary: self-cleavage, relative activity (ratio to wild type); higher = more cleavage; co-transcriptional
measurementName: self-cleavage

CCGCCUAACAGGGCCAAUGCCGGUCCCAAGCCCGGAUAAAAGUGGAGGGGGCGG    0.08

IN: # query: self-cleavage of entry `CCGCCUAACACUGGCAAUGCCGGUCCCAAGCCCGGGUAAAAGUGGAGGGGGCGG`
OUT: 0.37

IN: # query: self-cleavage of entry `CCGCCUAACACUGCCAAUGCCCGUCCCAAGCCCGGAUAAAAGUGGAGGGUGCGG`
OUT: 0.11
